I'd be grateful if you could share measured growth for these entries.
- Test system: HT29 colon
- assayInfo: NCI-60 one-dose screen, 48 h (100 = growth as untreated, 0 = no growth, -100 = all killed)
- runConditions: 10 µM unless noted
The panel holds about 83,000 compounds, 20% with a hit somewhere; the sample as a whole holds those more often. Activity calls are given as the source filed them. The calls were made as follows: active = growth percent below 10; inactive = the rest.

[[record]]
molecule = "N#C/C(=C1\\SC(=O)CN1c1ccccc1)c1nc2ccccc2s1"
experimentaltarget = "HT29 colon"
measurementname = "growth"
assayvalue = "108% (inactive)"


Can you give me growth for all of these, one by one?
1. O=C(/C=C/c1ccc(Cl)cc1)c1ccc(Nc2nc(NCCO)nc(N3CCOCC3)n2)cc1
2. COc1ccc(-n2c(C(O)c3ccccc3)n[nH]c2=S)cc1 (stereo not given)
3. O=c1c2cccc(F)c2sc2c(N3CCNCC3)nc3ccccc3c12

42.2% (inactive)
113% (inactive)
-45.4% (active)
